- Target or system: ZFP SBS#704 (synthetic)
- Sequence (chain, as listed by the source): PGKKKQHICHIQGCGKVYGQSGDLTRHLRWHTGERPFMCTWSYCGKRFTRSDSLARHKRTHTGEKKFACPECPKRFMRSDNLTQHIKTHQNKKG
- Assay explanation: EMSA
- Particulars: tags: MBP fusion
Quantity: pKd
# pKd: negative log10 of molar concentration; output just the value

Recorded pKd of AAGGTGGCAG (dsDNA) DNA 1: AAGGTGGCAG DNA 2: CTGCCACCTT , please.
8.30
